Biological target: human recombinant serotonin (5-Hydroxytryptamine) 5-HT6 receptor (Homo sapiens)
Construct: expressed in transfected cells; host or cells: HeLa
Sequence (P50406 whole entry): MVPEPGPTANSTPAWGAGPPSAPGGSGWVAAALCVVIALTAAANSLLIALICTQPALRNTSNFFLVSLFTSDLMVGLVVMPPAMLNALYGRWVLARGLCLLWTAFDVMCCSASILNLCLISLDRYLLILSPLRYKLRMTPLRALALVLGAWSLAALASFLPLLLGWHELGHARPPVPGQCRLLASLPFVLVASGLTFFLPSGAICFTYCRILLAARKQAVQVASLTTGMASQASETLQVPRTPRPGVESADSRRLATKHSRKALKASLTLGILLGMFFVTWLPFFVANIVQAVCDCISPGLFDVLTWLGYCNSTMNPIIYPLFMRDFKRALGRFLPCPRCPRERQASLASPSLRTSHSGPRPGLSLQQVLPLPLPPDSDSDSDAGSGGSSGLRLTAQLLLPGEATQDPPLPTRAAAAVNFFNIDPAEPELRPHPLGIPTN
Assay: Serotonin 5-HT6 radioligand binding ([3H]LSD)
Conditions: compound at 0.1 μM; read-out: Inhibition of ligand binding, Serotonin 5-HT6 (percent inhibition of specific binding)
Endpoint: inhibition at 0.1 µM
Reply with a number, then the unit it belongs to.

Look over these answered cases.
# Compound, inhibition at 0.1 µM
rows = [
    ("CN1CCc2c(c3cc(Cl)ccc3n2-c2cscc2-c2ccc(F)cc2)C1 [Compound 25]", "56%"),
    ("Cc1ccc2c(c1)c1c(n2-c2ncccc2-c2ccncc2)CCN(C)C1 [Compound No. 161]", "4%"),
    ("Cc1ccc2c(c1)c1c(n2-c2cscc2-c2sccc2C)CCN(C)C1 [Compound 39]", "65%"),
    ("Cc1ccc2c(c1)c1c(n2-c2ccccc2-c2cnn(C)c2)CCN(C)C1 [Compound No. 86]", "11%"),
    ("CC(=O)Nc1ccc(-c2cscc2-n2c3c(c4cc(C)ccc42)CN(C)CC3)cn1 [Compound 56]", "16%"),
    ("Cc1csc(-c2ccccc2-n2c3c(c4cc(C)ccc42)CN(C)CC3)c1 [Compound 36]", "13%"),
    ("Cc1ccc2c(c1)c1c(n2-c2ccccc2-c2ccc3c(ccn3C)c2)CCN(C)C1 [Compound No. 85]", "49%"),
    ("Cc1ccc2c(c1)c1c(n2-c2cccc(-c3cnn(C)c3)c2)CCN(C)C1 [Compound 46]", "14%"),
]

[ask] Request the reported inhibition at 0.1 µM associated with Cc1ccc2c(c1)c1c(n2-c2ccccc2-c2cn[nH]c2)CCN(C)C1 [Compound No. 104]
[reply] 10%

[ask] State the recorded inhibition at 0.1 µM for this entry: Cc1ccc2c(c1)c1c(n2-c2ccc(-c3ccc(S(N)(=O)=O)cc3)cn2)CCN(C)C1 [Compound No. 145]
[reply] -11%

[ask] Quick one: inhibition at 0.1 µM for Cc1ccc2c(c1)c1c(n2-c2ccccc2-c2ccc(F)nc2)CCN(C)C1 [Compound No. 84] ?
[reply] 20%

[ask] # get_value(readout='inhibition at 0.1 µM', item= Cc1ccc2c(c1)c1c(n2-c2cccc(-c3ccc(S(N)(=O)=O)cc3)c2)CCN(C)C1 [Compound No. 158] )
[reply] 14%

[ask] Name the reported inhibition at 0.1 µM value associated with the compound Cc1ccc2c(c1)c1c(n2-c2ccccc2-c2cnccc2C)CCN(C)C1 [Compound No. 159]
[reply] 0%
